Molecular target: MMP-1 (Homo sapiens)
Sequence (P03956 100-469): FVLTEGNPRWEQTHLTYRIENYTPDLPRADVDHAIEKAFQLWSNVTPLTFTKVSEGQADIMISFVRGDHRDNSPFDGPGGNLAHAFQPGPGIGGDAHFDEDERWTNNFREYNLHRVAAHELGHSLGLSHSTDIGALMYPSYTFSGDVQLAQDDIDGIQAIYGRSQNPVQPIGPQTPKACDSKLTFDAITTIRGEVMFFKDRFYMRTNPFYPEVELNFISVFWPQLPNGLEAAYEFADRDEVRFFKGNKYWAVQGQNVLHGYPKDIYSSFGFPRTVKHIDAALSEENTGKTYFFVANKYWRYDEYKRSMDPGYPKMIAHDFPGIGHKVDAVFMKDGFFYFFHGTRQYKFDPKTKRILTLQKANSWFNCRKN
Experiment: MMP-1 inhibition (thiopeptide or fluorescent peptide substrate)
Assay type: biochemical
Conditions: read-out: MMP-1 IC50
metric: IC50

Look over these answered cases.
>  <compound>
C#CCOc1ccc(C(NS(=O)(=O)c2ccc(OCC#CC)cc2)C(=O)NO)cc1 (stereo not shown) [Example 177]

>  <test system>
MMP-1 (Homo sapiens)

>  <metric>
IC50

>  <data value>
< 10 µM

$$$$
>  <compound>
CC#CCOc1ccc(S(=O)(=O)NC(C(=O)NO)c2ccc(OCCN3CCN(C(=O)OC(C)(C)C)CC3)cc2)cc1 (stereo not shown) [Example 202]

>  <test system>
MMP-1 (Homo sapiens)

>  <metric>
IC50

>  <data value>
> 10 µM

$$$$
>  <compound>
CC#CCOc1ccc(S(=O)(=O)N[C@@H](C(=O)NO)c2ccc(OCCNC(=O)OC(C)(C)C)cc2)cc1 [Example 199]

>  <test system>
MMP-1 (Homo sapiens)

>  <metric>
IC50

>  <data value>
~10 µM

$$$$
>  <compound>
CC#CCOc1ccc(S(=O)(=O)NC2(C(=O)NO)CCCC2)cc1 [Example 139]

>  <test system>
MMP-1 (Homo sapiens)

>  <metric>
IC50

>  <data value>
> 10 µM

$$$$
>  <compound>
CC#CCOc1ccc(S(=O)(=O)NC(C(=O)NO)c2ccc(OCCN3CCOCC3)cc2)cc1 (stereo not shown) [Example 206]

>  <test system>
MMP-1 (Homo sapiens)

>  <metric>
IC50

>  <data value>
> 10 µM

$$$$

input: If you can, please state the reported IC50 value of CC#CCOc1ccc(S(=O)(=O)N[C@@H](C(=O)NO)c2ccc(OCCNC(C)=O)cc2)cc1 [Example 201] .
output: ~10 µM

input: Same question for CC#CCOc1ccc(S(=O)(=O)NC2(C(=O)NO)CCN(C(=O)OC(C)(C)C)CC2)cc1 [Example 287] please.
output: > 10 µM

----------
Biological target: MMP-9 (Homo sapiens)
Sequence (P14780 94-707): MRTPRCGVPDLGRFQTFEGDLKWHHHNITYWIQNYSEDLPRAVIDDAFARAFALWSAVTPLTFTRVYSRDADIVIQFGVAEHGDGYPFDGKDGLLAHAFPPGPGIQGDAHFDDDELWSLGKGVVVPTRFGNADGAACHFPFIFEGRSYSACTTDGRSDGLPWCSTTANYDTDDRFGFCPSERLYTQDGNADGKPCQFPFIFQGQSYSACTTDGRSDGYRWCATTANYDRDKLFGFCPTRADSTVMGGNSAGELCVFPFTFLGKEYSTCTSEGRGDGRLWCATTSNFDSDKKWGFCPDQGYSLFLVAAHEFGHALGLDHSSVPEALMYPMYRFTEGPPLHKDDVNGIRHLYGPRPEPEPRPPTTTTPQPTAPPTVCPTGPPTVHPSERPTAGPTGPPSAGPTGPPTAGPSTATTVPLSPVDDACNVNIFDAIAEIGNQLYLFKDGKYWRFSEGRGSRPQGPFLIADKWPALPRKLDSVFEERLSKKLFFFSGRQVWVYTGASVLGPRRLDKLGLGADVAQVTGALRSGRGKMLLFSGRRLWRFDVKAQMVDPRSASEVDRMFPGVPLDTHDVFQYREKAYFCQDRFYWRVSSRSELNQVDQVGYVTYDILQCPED
Test: MMP-9 inhibition (thiopeptide or fluorescent peptide substrate)
Assay type: biochemical
Settings: read-out: MMP-9 IC50
Structures can show the parent of a compound that is named as a salt.
Below is a list of entries, each paired with its recorded IC50 value.
Please reply with the bare figure in nM and do not write the unit itself.

>  <compound>
CC#CCOc1ccc(S(=O)(=O)N2CCN(C(=O)C3(C)COC(C)(C)OC3)CC2C(=O)NO)cc1 (stereo not drawn)

>  <metric>
IC50

>  <value unit>
nM

>  <data value>
1110

$$$$

input: Quick check: IC50 on MMP-9 (Homo sapiens), item CC#CCOc1ccc(S(=O)(=O)N2Cc3ccccc3CC2C(=O)NO)cc1 (stereo not drawn) ?
output: 24

input: Continue with CC#CCOc1ccc(S(=O)(=O)N2CCN(C(=O)N3CCOCC3)CC2C(=O)NO)cc1 (stereo not drawn)
output: 60

input: Repeat for the following compound: CC#CCOc1ccc(S(=O)(=O)N(CC#CCN2CCN(C)CC2)C(C(=O)NO)C(C)C)cc1 (stereo not drawn)
output: 846

input: Can you handle CC#CCOc1ccc(S(=O)(=O)N(C)C(C(=O)NO)c2ccccc2)cc1 (stereo not drawn) next?
output: 43

input: How about this compound: CC#CCOc1ccc(S(=O)(=O)N2CCN(C(=O)Nc3cc(Cl)cc(Cl)c3)CC2C(=O)NO)cc1 (stereo not drawn)
output: 642

input: Okay, and CC#CCOc1ccc(S(=O)(=O)N(C)C(C(=O)NO)c2ccc(OCCN3CCCC3=O)cc2)cc1 (stereo not drawn) ?
output: 55

input: Next entry: CC#CCOc1ccc(S(=O)(=O)N(C)C(C(=O)NO)C(C)(C)SCCN2CCCC2C(=O)OC)cc1 (stereo not drawn)
output: 7.1

input: Further, for CC#CCOc1ccc(S(=O)(=O)N(Cc2cccnc2)C(C)C(=O)NO)cc1 (stereo not drawn) [Example 33, Hydrochloride] ?
output: 65

input: Same read-out for CC#CCOc1ccc(S(=O)(=O)N(CCN2CCOCC2)CC(=O)NO)cc1 [Example 124, Hydrochloride] ?
output: 211

input: Note, next up: CC#CCOc1ccc(S(=O)(=O)NC(CSC)C(=O)NO)cc1 (stereo not drawn)
output: 228

input: One more compound: CC#CCOc1ccc(S(=O)(=O)N2CCN(C(=O)CNC(=O)OC(C)(C)C)CC2C(=O)NO)cc1 (stereo not drawn)
output: 322
